Values from the supplement of paper PMC12350171

I'd appreciate it if you could supply growth AUC normalised to DMSO control values for the items below.
# System: P. vulgatus RND KO
# Assay remarks: growth AUC normalised to DMSO control (median) (fraction of control); higher = less growth inhibition, active = hit call of the paper
# Test parameters: 20 µM
Counter-ions that a name gives are not always drawn.
The answer should be written as a number, with no unit following it.

### Prompt State its growth AUC normalised to DMSO control for this compound: Clc1ccc(CCC(Cn2ccnc2)Sc2c(Cl)cccc2Cl)cc1 (centres undefined) [Butoconazole nitrate]
### Response 0.998

### Prompt State its growth AUC normalised to DMSO control for this compound: `CC[C@]12CCCN3CCc4c(n(c5ccccc45)[C@@](O)(C(=O)OC)C1)[C@@H]32`
### Response 1.02

### Prompt State its growth AUC normalised to DMSO control for this compound: COC(=O)C1=C(C)NC(C)=C(C(=O)OCCN(C)Cc2ccccc2)C1c1cccc([N+](=O)[O-])c1 (centres undefined) [Nicardipine hydrochloride]
### Response 1.02

### Prompt State its growth AUC normalised to DMSO control for this compound: CCCNC(C)(C)COC(=O)c1ccccc1 [Meprylcaine hydrochloride]
### Response 0.984

====

# Test system: P. vulgatus WT
# Assay remarks: growth AUC normalised to DMSO control (median) (fraction of control); higher = less growth inhibition, active = hit call of the paper
# Test parameters: 20 µM
Structures can show the parent of a compound that is named as a salt.
Pick one: active, inactive

### Prompt // param item: N[C@@H](C(=O)N[C@@H]1C(=O)N2C(C(=O)O)=C(Cl)CC[C@H]12)c1ccccc1 [Loracarbef] ; yields the recorded call
### Response active

### Prompt // param item: NCCc1ccc(O)c(O)c1 [Dopamine hydrochloride] ; yields the recorded call
### Response inactive

### Prompt // param item: NS(=O)(=O)c1cc(C2(O)NC(=O)c3ccccc32)ccc1Cl (stereo not given) [Chlorthalidone] ; yields the recorded call
### Response inactive

### Prompt // param item: COc1ccccc1N1CCN(CC(O)COc2cccc3ccccc23)CC1 (stereo not given) [Naftopidil dihydrochloride] ; yields the recorded call
### Response inactive

### Prompt // param item: CCOC(=O)NNc1nncc2ccccc12 [Todralazine hydrochloride] ; yields the recorded call
### Response inactive

====

# Test system: Shigella flexneri
# Assay remarks: growth AUC normalised to DMSO control (fraction of control); higher = less growth inhibition, active = hit call of the paper
# Test parameters: 20 µM
Counter-ions that a name gives are not always drawn.
Threshold check on growth AUC normalised to DMSO control: at or above 0.9 gives class 1, strictly below gives class 0.

### Prompt For this compound, is measured growth AUC normalised to DMSO control 0.9 or higher? Oc1c(I)cc(Cl)c2cccnc12 [Clioquinol]
### Response class 1

### Prompt For this compound, is measured growth AUC normalised to DMSO control 0.9 or higher? C=CC1=C(C(=O)O)N2C(=O)[C@@H](NC(=O)/C(=N\O)c3csc(N)n3)[C@H]2SC1 [Cefdinir]
### Response class 0

### Prompt For this compound, is measured growth AUC normalised to DMSO control 0.9 or higher? NC[C@H]1O[C@H](O[C@H]2[C@H](O)[C@@H](O[C@H]3O[C@H](CO)[C@@H](O)[C@H](N)[C@H]3O)[C@H](N)C[C@@H]2N)[C@H](N)C[C@@H]1O [Tobramycin]
### Response class 0

### Prompt For this compound, is measured growth AUC normalised to DMSO control 0.9 or higher? CNC1(C)C2CCC(C2)C1(C)C (stereo unspecified) [Mecamylamine hydrochloride]
### Response class 1

### Prompt For this compound, is measured growth AUC normalised to DMSO control 0.9 or higher? N=C(N)c1ccc(OCCCCCOc2ccc(C(=N)N)cc2)cc1 [Pentamidine isethionate]
### Response class 1

### Prompt For this compound, is measured growth AUC normalised to DMSO control 0.9 or higher? CN(C)[C@@H]1C(=O)C(C(=O)NCNCCCC[C@H](N)C(=O)O)=C(O)[C@@]2(O)C(=O)C3=C(O)c4c(O)cccc4[C@@](C)(O)[C@H]3C[C@@H]12 [Lymecycline]
### Response class 1

====

I'd appreciate it if you could supply growth AUC normalised to DMSO control values for the items below.
# Tested on: S. enterica typhimurium WT
# Assay remarks: growth AUC normalised to DMSO control (median) (fraction of control); higher = less growth inhibition, active = hit call of the paper
# Test parameters: 20 µM
Where a name gives a salt, the structure may show the parent alone.
The answer should be written as a number, with no unit following it.

### Prompt State its growth AUC normalised to DMSO control for this molecule: CNCCc1ccccn1 [Betahistine mesylate]
### Response 1.02

### Prompt State its growth AUC normalised to DMSO control for this molecule: `Cc1ccc(-c2cc(C(F)(F)F)nn2-c2ccc(S(N)(=O)=O)cc2)cc1`
### Response 1.01

### Prompt State its growth AUC normalised to DMSO control for this molecule: O=C(O)c1cc(=O)c2c(OCC(O)COc3cccc4oc(C(=O)O)cc(=O)c34)cccc2o1 [Cromolyn disodium salt]
### Response 1.02

### Prompt State its growth AUC normalised to DMSO control for this molecule: Clc1ccc(COC(Cn2ccnc2)c2ccc(Cl)cc2Cl)c(Cl)c1 (stereo not drawn)
### Response 0.993

### Prompt State its growth AUC normalised to DMSO control for this molecule: C=CCN1CCCC1CNC(=O)c1cc2nn[nH]c2cc1OC (stereo not drawn) [Alizapride hydrochloride]
### Response 1.02

### Prompt State its growth AUC normalised to DMSO control for this molecule: O=C1Cc2cc(CCN3CCN(c4nsc5ccccc45)CC3)c(Cl)cc2N1 [Ziprasidone hydrochloride monohydrate]
### Response 1.02

### Prompt State its growth AUC normalised to DMSO control for this molecule: `CC(C)(Oc1ccc(Cl)cc1)C(=O)O`
### Response 0.996

### Prompt State its growth AUC normalised to DMSO control for this molecule: CCCCC1C(=O)N(c2ccccc2)N(c2ccc(O)cc2)C1=O (stereo not drawn)
### Response 1.01

### Prompt State its growth AUC normalised to DMSO control for this molecule: `O=c1oc2cc(O)ccc2s1`
### Response 0.989

### Prompt State its growth AUC normalised to DMSO control for this molecule: Cc1ccc(S(=O)(=O)NC(=O)NN2CCCCCC2)cc1 [Tolazamide]
### Response 1.01

### Prompt State its growth AUC normalised to DMSO control for this molecule: CC(=O)Nc1c(I)c(C(=O)N[C@H]2C(O)O[C@H](CO)[C@@H](O)[C@@H]2O)c(I)c(N(C)C(C)=O)c1I (stereo partly drawn) [Metrizamide]
### Response 1.02

### Prompt State its growth AUC normalised to DMSO control for this molecule: `Nc1ncnc2c1ncn2[C@@H]1O[C@H](CO)[C@@H](O)[C@@H]1O`
### Response 0.99

### Prompt State its growth AUC normalised to DMSO control for this molecule: `COc1c(N2C[C@@H]3CCCN[C@@H]3C2)c(F)cc2c(=O)c(C(=O)O)cn(C3CC3)c12`
### Response 0.0075

### Prompt State its growth AUC normalised to DMSO control for this molecule: CC(C(=O)O)c1ccc(C(=O)c2ccccc2)s1 (stereo not drawn)
### Response 1

### Prompt State its growth AUC normalised to DMSO control for this molecule: CCOc1ccccc1C(N)=O [Ethenzamide]
### Response 1

### Prompt State its growth AUC normalised to DMSO control for this molecule: `O=C1[C@@H]2[C@H]3CC[C@H](C3)[C@@H]2C(=O)N1CCCCN1CCN(c2ncccn2)CC1`
### Response 1.01

### Prompt State its growth AUC normalised to DMSO control for this molecule: `CC(=O)[C@H]1CC[C@H]2[C@@H]3C=CC4=CC(=O)CC[C@@]4(C)[C@@H]3CC[C@]12C`
### Response 1.01

### Prompt State its growth AUC normalised to DMSO control for this molecule: `CCCCC1=NC2(CCCC2)C(=O)N1Cc1ccc(-c2ccccc2-c2nnn[nH]2)cc1`
### Response 1.01

### Prompt State its growth AUC normalised to DMSO control for this molecule: COC(=O)C1=C(C)NC(C)=C(C(=O)OC(C)C)C1c1cccc2nonc12 (stereo not drawn)
### Response 1.02

### Prompt State its growth AUC normalised to DMSO control for this molecule: CC(C)NCC(O)c1ccc(O)c(O)c1 (single isomer, unassigned; (-)) [(-) Isoproterenol hydrochloride]
### Response 1

### Prompt State its growth AUC normalised to DMSO control for this molecule: CCN(CC)CCCC(C)Nc1ccnc2cc(Cl)ccc12 (stereo not drawn) [Chloroquine diphosphate]
### Response 1

### Prompt State its growth AUC normalised to DMSO control for this molecule: `CN1CCN(c2c(F)cc3c(=O)c(C(=O)O)cn(CCF)c3c2F)CC1`
### Response 0.00801

### Prompt State its growth AUC normalised to DMSO control for this molecule: `CS(=O)(=O)CCNCc1ccc(-c2ccc3ncnc(Nc4ccc(OCc5cccc(F)c5)c(Cl)c4)c3c2)o1`
### Response 1

### Prompt State its growth AUC normalised to DMSO control for this molecule: CCOC(=O)C1=C(COCCN)NC(C)=C(C(=O)OC)C1c1ccccc1Cl (stereo not drawn)
### Response 1.02

### Prompt State its growth AUC normalised to DMSO control for this molecule: CC1=C(CC(=O)O)c2cc(F)ccc2/C1=C\c1ccc([S+](C)[O-])cc1 (stereo not drawn)
### Response 1

### Prompt State its growth AUC normalised to DMSO control for this molecule: CCN(Cc1ccncc1)C(=O)C(CO)c1ccccc1 (stereo not drawn) [Tropicamide]
### Response 1.01

### Prompt State its growth AUC normalised to DMSO control for this molecule: `Cc1cc(NS(=O)(=O)c2ccc(N)cc2)no1`
### Response 0.967

### Prompt State its growth AUC normalised to DMSO control for this molecule: CC(C)(C)C(O)/C=C/c1ccc2c(c1)OCO2 (stereo not drawn)
### Response 1
